Can you tell me pKi for the items I'm about to list?
Target: unphosphorylated VEGF-R2Δ50 (FLVK) (Homo sapiens, UniProt P35968, DEL940-989/E990V)
Construct: VEGF-R2Δ50 contains residues 806-939 and 990-1171; made in house; host or cells: baculovirus/insect cells
Sequence (P35968 with tags, fused parts or gaps DEL940-989/E990V limits assumed): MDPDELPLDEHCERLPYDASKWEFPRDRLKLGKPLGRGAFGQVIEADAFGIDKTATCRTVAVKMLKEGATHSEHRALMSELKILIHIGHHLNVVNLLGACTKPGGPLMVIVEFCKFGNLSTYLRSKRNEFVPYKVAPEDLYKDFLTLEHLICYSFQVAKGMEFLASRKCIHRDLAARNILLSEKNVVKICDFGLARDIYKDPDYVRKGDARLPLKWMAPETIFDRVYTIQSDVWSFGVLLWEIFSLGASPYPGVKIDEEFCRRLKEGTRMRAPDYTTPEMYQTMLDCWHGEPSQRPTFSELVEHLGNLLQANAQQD
Assay: VEGF-R2 coupled spectrophotometric assay, unphosphorylated construct (FLVK);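 also: Baculovirus-expressed cytosolic kinase domain, ADP formation linked via pyruvate kinase and lactate dehydrogenase to NADH oxidation, read as falling absorbance at 340 nm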
Type: biochemical
Where a name gives a salt, the structure may show the parent alone.
Answers are plain numbers, as −log10 of the molar value.

Solved entries:
In [3]: df
Out[3]:
                                   molecule                               system_name  value
0  Cc1ccc2cc(NC(=O)c3cccc(OCc4cccnc4)c3)ccc2n1  unphosphorylated VEGF-R2Δ50 (FLVK) (Homo sapiens, UniProt P35968, DEL940-989/E990V)   8.00
1  Cc1c(Br)cc(NC(=O)c2cccc(CSc3cnccn3)c2)cc1Br  unphosphorylated VEGF-R2Δ50 (FLVK) (Homo sapiens, UniProt P35968, DEL940-989/E990V)   8.72
2  COc1ccc(Nc2cc(CCc3cccc(C(=O)Nc4cc(Cl)c(N(C)C)c(Cl)c4)c3)[nH]n2)cn1  unphosphorylated VEGF-R2Δ50 (FLVK) (Homo sapiens, UniProt P35968, DEL940-989/E990V)   9.60
3  O=C(Nc1ccc(N2CCOCC2)c(C(F)(F)F)c1)c1ccc(F)c(OCc2cccnc2)c1  unphosphorylated VEGF-R2Δ50 (FLVK) (Homo sapiens, UniProt P35968, DEL940-989/E990V)   8.36
4  O=C(Nc1ccc2c(c1)CCCN2)c1ccc(F)c(OCc2cncc3ccccc23)c1 [Example O-1, bistrifluoroacetic acid salt]  unphosphorylated VEGF-R2Δ50 (FLVK) (Homo sapiens, UniProt P35968, DEL940-989/E990V)   8.26

Need pKi for each of these molecules.
1. Cc1ccc2cc(NC(=O)c3cccc(SCc4cc(Nc5ccccc5)n[nH]4)c3)ccc2n1
2. COc1cc(NC(=O)c2cccc(CSc3ncnc4[nH]ncc34)c2)cc(OC)c1OC

Result:
1. 8.85
2. 7.60

Task: Give pKi for `COc1cc(NC(=O)c2ccc(F)c(OCc3cc(Nc4ccc(OC)nc4)n[nH]3)c2)cc(C(F)(F)F)c1` tested on unphosphorylated VEGF-R2Δ50 (FLVK) (Homo sapiens, UniProt P35968, DEL940-989/E990V).
Result: 9.04

----------
Target: LCK tyrosine kinase (Homo sapiens, UniProt P06239, C224D/P223M)
Construct: starting from amino acid residue 223 to the end of the protein at residue 509; made in house; host or cells: insect cells
Sequence (P06239 223-509 P223M/C224D): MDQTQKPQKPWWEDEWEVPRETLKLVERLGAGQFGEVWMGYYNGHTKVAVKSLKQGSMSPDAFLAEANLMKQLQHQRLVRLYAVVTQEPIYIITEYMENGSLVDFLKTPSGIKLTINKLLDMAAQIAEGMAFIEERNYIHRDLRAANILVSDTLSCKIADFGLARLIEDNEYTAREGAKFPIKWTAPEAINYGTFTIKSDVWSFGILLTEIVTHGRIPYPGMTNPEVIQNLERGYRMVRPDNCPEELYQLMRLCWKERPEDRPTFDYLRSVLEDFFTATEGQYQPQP
Assay: LCK spectrophotometric assay;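 also: recombinant LCK kinase activity on poly(E4Y1), ADP formation coupled through PK/LDH to NADH oxidation, followed as absorbance loss at 340 nm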
Format: biochemical
Conditions: @ 1 μM; read-out: LCK-P percent inhibition
Can you tell me inhibition at 1 µM for the items I'm about to list?
Give the value; after it, write the unit.

>>> print(df.to_string())
                                   compound             measure  value
0  CC1(C)OC(C)(C)c2cc(NC(=O)c3cccc(OCc4cncc5ccccc45)c3)ccc21  inhibition at 1 µM    23%
1  COc1cc(NC(=O)c2ccc(F)c(OCc3cc(Nc4ccc(OC)nc4)n[nH]3)c2)cc(C(F)(F)F)c1  inhibition at 1 µM    44%

Need inhibition at 1 µM for each of these compounds.
1. COc1cc(NC(=O)c2cccc(CSc3ncnc4[nH]ncc34)c2)cc(C(F)(F)F)c1
2. O=C(Nc1ccc(N2CCNCC2)c(C(F)(F)F)c1)c1ccc(F)c(OCc2cccnc2)c1
3. O=C(Nc1cccc(OC(F)(F)F)c1)c1cccc(OCc2cncc3ccccc23)c1
4. COc1ccc(/C=C/c2cc(CCc3cccc(C(=O)Nc4ccc(C(C)C)c(C)c4)c3)[nH]n2)cc1OC

Result:
1. 9%
2. 5%
3. 28%
4. 84%

----------
Can you tell me inhibition at 1 µM for the items I'm about to list?
Target: FGF-R1 intracellular kinase domain (Homo sapiens, UniProt P11362, C488A/C584S/L457V)
Construct: starting from the endogenous methionine residue 456 to glutamate 766; made in house; host or cells: baculovirus expression system
Sequence (P11362 456-766 L457V/C488A/C584S): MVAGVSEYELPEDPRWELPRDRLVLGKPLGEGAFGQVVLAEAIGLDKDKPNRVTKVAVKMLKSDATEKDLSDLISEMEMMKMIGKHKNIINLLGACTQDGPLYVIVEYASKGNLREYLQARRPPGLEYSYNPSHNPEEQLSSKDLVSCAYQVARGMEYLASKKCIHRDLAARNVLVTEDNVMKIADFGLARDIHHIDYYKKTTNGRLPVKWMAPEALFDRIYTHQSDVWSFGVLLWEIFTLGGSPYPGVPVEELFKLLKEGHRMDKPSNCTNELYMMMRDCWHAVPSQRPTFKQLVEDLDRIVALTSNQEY
Assay: FGF-R spectrophotometric assay;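 also: coupled PK/LDH enzyme assay: ADP from kinase phosphoryl transfer drives NADH oxidation, read as absorbance decrease at 340 nm, with 2 mM ATP and poly(E4Y1) substrate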
Type: biochemical
Settings: @ 1 μM; read-out: FGF-P percent inhibition
Counter-ions that a name gives are not always drawn.
Give bare numbers, in %.

Solved entries:
                                   molecule  value
0  C/C=C/c1cc(COc2cc(C(=O)Nc3ccc(N4CCCC4)c(C(F)(F)F)c3)ccc2F)[nH]n1 [Example F-4]     18
1  O=C(Nc1ccc(-n2cccn2)c(C(F)(F)F)c1)c1ccc(F)c(OCc2cccnc2)c1 [Example R-22]     21
2  Cl.O=C(Nc1ccc(N2CCOCC2)c(C(F)(F)F)c1)c1ccc(F)c(OCc2cncc3ccccc23)c1 [Example R-14]     96
3  CC(C)(C)c1cc(C(=O)Nc2cccc(SCc3cccnc3)c2)ccc1O [Example W-2]     18
4  CC(C)(C)c1cc(C(=O)Nc2cccc(CSc3ncnc4[nH]ncc34)c2)ccc1O [Example V-4]     37
5  COc1ccc(Nc2cc(CCc3cccc(C(=O)Nc4ccc(C(C)C)c(C)c4)c3)[nH]n2)cn1 [Example G-4]     77

Need inhibition at 1 µM for each of these molecules.
1. COc1ccc(Nc2cc(COc3cc(C(=O)Nc4ccc(-n5ccnc5)c(C(F)(F)F)c4)ccc3F)[nH]n2)cn1 [Example J-1]
2. CC(C)(C)c1cc(C(=O)Nc2cccc(OCc3cncc(Br)c3)c2)ccc1O [Example X-1]
3. CC(=O)Nc1ccc(CCc2cccc(C(=O)Nc3ccc(N4CCNCC4)c(C(F)(F)F)c3)c2)cn1 [AA-1, dihydrochloride]
4. O=C(Nc1ccc(N2CCNCC2)c(C(F)(F)F)c1)c1ccc(F)c(OCc2cncc(-c3ccco3)c2)c1 [EE-1, dihydrochloride]
5. CC(C)(C)c1cc(C(=O)Nc2cccc(SCc3cncc4ccccc34)c2)ccc1O.Cl [Example W-3]
6. Cc1cc(NC(=O)c2cccc(CCc3cc(Nc4ccccc4)n[nH]3)c2)ccc1C(C)C [Example G-3]
7. O=C(Nc1cc(Cl)c(N2CCCC2)c(Cl)c1)c1ccc(F)c(OCc2cccnc2)c1 [Example R-11]

Result:
1: 61; 2: 28; 3: 39; 4: 32; 5: 56; 6: 91; 7: 30

Need inhibition at 1 µM for each of these molecules.
1. O=C(Nc1ccc(N2CCNCC2)c(C(F)(F)F)c1)c1ccc(F)c(OCc2cccnc2)c1 [Example R-13]
2. Cc1cc(NC(=O)c2ccc(Cl)c(OCc3cncc4ccccc34)c2)ccc1C(C)C [Example K-12]

Result:
[7, 70]

Need inhibition at 1 µM for each of these molecules.
1. COc1ccc(Nc2cc(CSc3cccc(NC(=O)c4ccc(O)c(C(C)(C)C)c4)c3)[nH]n2)cn1 [Example W-1]
2. Cc1ccc(C(=O)Nc2ccc(C(C)C)c(C)c2)cc1OCc1cncc2ccccc12 [Example K-11]
3. COc1ccc(/C=C/c2cc(CCc3cccc(C(=O)Nc4ccc(C(C)C)c(C)c4)c3)[nH]n2)cc1OC [Example F-3]

Result:
1: 67; 2: 59; 3: 83

----------
Can you tell me IC50 for the items I'm about to list?
System: human umbilical vein endothelial cells (HUVEC)
Experiment: HUVEC proliferation assay (VEGF-stimulated, MTT)
Format: cell-based
Settings: Homo sapiens; VEGF-stimulated HUVEC proliferation; read-out: HUVEC IC50
Give bare numbers, in nM.

In [3]: df
Out[3]:
                                   compound  measure  value
0  CC(C)(C)c1cc(C(=O)Nc2cccc(OCc3cncc(Br)c3)c2)ccc1O [Example X-1]     IC50     27
1  COc1ccc(Nc2cc(CSc3cccc(NC(=O)c4ccc(O)c(C(C)(C)C)c4)c3)[nH]n2)cn1 [Example W-1]     IC50     23
2  CC(C)(C)c1cc(C(=O)Nc2cccc(SCc3cccnc3)c2)ccc1O [Example W-2]     IC50    120
3  CC(C)(C)c1cc(C(=O)Nc2cccc(OCc3cncc4ccccc34)c2)ccc1O [Example X-5]     IC50     29
4  CC(C)(C)c1cc(C(=O)Nc2cccc(SCc3cncc4ccccc34)c2)ccc1O.Cl [Example W-3]     IC50    220

Need IC50 for each of these compounds.
1. CC(C)(C)c1cc(C(=O)Nc2cccc(CSc3ncnc4[nH]ncc34)c2)ccc1O [Example V-4]
2. CC(C)(C)c1cc(C(=O)Nc2cccc(OCc3cccnc3)c2)ccc1O [Example X-4]

Result:
27
71

----------
Structures can show the parent of a compound that is named as a salt.
measure: melting point

Solved entries:
In [3]: df
Out[3]:
                                   compound                 value
0  Cc1ccc2cc(NC(=O)c3cccc(SCc4cnccn4)c3)ccc2n1         102 to 105 °C
1  O=C(Nc1ccc(N2CCNCC2)c(C(F)(F)F)c1)c1ccc(F)c(OCc2cncc3ccccc23)c1 (as salt: hydrochloride)         103 to 107 °C
2  CC(C)(C)c1cc(C(=O)Nc2cccc(OCc3cncc(Br)c3)c2)ccc1O         105 to 111 °C
3  CC(C)(C)c1cc(C(=O)Nc2cccc(SCc3cccnc3)c2)ccc1O          95 to 100 °C
4  O=C(Nc1ccc(N2CCNCC2)c(C(F)(F)F)c1)c1ccc(F)c(OCc2cccnc2)c1         123 to 131 °C
5  O=C(Nc1ccc2ncccc2c1)c1cccc(CSc2ncnc3[nH]ncc23)c1  236 to 240 °C (dec.)
6  Cc1cc(NC(=O)c2cccc(OCc3ccc(N)nc3)c2)ccc1C(C)C           78 to 81 °C

Now for a further compound.
Task: Dear colleague, please send me the reported melting point for `Cc1ccc2cc(NC(=O)c3cccc(OCc4ccc(N)nc4)c3)ccc2n1` when you can.
Result: 189 to 192 °C
